Molecular target: HLA-B*27:05
Test: IEDB peptide-MHC binding, purified MHC/direct/fluorescence; filed as Kd, often an IC50 or EC50 that approximates it; bounds were set here for any values at or beyond the usual limits of such assays
Settings: source organism: Influenza A virus (A/Hong Kong/485/1997(H5N1))

seq-string: QMRDVLGTF
Kd: ≥ 20 µM

---

Molecular target: HLA-B*83:01
Experiment: IEDB peptide-MHC binding, purified MHC/competitive/fluorescence; filed as Kd, often an IC50 or EC50 that approximates it; bounds were set here for any values at or beyond the usual limits of such assays
Settings: source organism: human gammaherpesvirus 4
measured-quantity: Kd

seq-string: RRYASQTEL
result: ≥ 5 µM

Provenance of the data: the Immune Epitope Database (IEDB)
